# Test Target: T1, human CD70, recombinant, N-terminally biotinylated (residues 39-193) (human, UniProt P32970 39-193, N-terminal biotin)
# T1 construct: range 39-193; the same entry is used there; also called biotinylated human CD70; CD70 biotin
# T1 sequence (looked up): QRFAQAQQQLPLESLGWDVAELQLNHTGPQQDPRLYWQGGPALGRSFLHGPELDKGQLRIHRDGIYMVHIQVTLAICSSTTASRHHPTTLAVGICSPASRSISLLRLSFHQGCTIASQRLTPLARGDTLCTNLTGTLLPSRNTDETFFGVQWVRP
# Assay Protocol: CD27 blocking ELISA, 3 µM scFv, strep/HRP
Measured Metric: strep/HRP

Memo: 58-TC7-III-G11 (scFv, His-tagged) scFv: EVQLVQSGGGVVQPGRSLRLSCAASGFTFSSYAMHWVRQAPGKGLEWVAVISYDGSNKYYADSVKGRFTISRDNSKNTLYLQMNSLRAEDTAVYYCATNSGYDSDYYYGMDVWGQGTTVTVSSGGSGGSGGSGGSQSVLTQPPSMSGAPGQRVTISCTGSSSNIGAGYDVHWYQHLPGTGPKLLIHGNTNRPSGVPDRFSGSKSGTSASLAITGLQAEDEADYYCQSYDNSLGGYVVFGGGTKVTVL , reported strep/HRP: 0.503

Memo: 53-TC7-VI-B06 (scFv, His-tagged) scFv: EVQLLESGGGVVQPGRSLRLSCAASGFTFSSYGMHWVRQAPGKGLEWVAVISYDGSNKYYADSVKGRFTISRDNSKNTLYLQMNSLRAEDTAVYYCAKGELELTNWGQGTLVTVSSGGSGGSGGSGGSSYELTQPPSVSVAPGQTARITCGGNNIGSKSVHWYQQKSGQAPVLVVYDDTDRPSGTPERFSGSNSGNTATLTISGTQAMDEADYYCQAWDSSTAVFGTGTKVTVL , reported strep/HRP: 1.44

Just for reference, patent US20240252641A1 is where these values come from.
